Biological target: T1, APC7524-AA
T1 chain: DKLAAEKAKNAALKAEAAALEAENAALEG
Experiment: two-hybrid library CCmax;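 also: natural log of median RNA to DNA barcode read ratio; higher means stronger binding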
Conditions: mean of both orientations
Labelling: interaction score reported below -2 becomes TRUE; at or above becomes FALSE.

Field: example entries. Status: answers known.
{"columns": ["binder", "assigned category"],
 "data": [
  ["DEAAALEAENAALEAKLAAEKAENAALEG [APC2474-AA]", "TRUE"],
  ["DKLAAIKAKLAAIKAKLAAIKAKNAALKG [APC1115-AA]", "FALSE"],
  ["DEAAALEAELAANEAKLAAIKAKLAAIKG [APC2811-AA]", "FALSE"]
]}

Query block: For this binder, is interaction score lower than -2? DKNAALKAKNAALKAKAAALKAKLAAIKG [APC5531-AA]
Result block: FALSE

Query block: For this binder, is interaction score lower than -2? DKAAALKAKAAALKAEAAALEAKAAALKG [APC3323-AA]
Result block: FALSE

Query block: For this binder, is interaction score lower than -2? DKAAALKAELAANEAELAANEAKLAAIKG [APC3881-AA]
Result block: FALSE

Query block: For this binder, is interaction score lower than -2? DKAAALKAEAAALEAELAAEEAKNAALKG [APC3265-AA]
Result block: FALSE

Query block: For this binder, is interaction score lower than -2? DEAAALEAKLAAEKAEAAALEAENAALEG [APC2724-AA]
Result block: FALSE

Query block: For this binder, is interaction score lower than -2? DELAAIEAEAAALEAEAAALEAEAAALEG [APC222-AA]
Result block: TRUE

Query block: For this binder, is interaction score lower than -2? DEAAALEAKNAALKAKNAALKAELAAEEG [APC2556-AA]
Result block: TRUE

Query block: For this binder, is interaction score lower than -2? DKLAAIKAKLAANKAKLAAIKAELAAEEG [APC1916-AA]
Result block: FALSE

These entries and their values trace back to paper PMC10397247.
